target: Pol theta (1-899) (Homo sapiens (Human))
Sequence (O75417 1-899): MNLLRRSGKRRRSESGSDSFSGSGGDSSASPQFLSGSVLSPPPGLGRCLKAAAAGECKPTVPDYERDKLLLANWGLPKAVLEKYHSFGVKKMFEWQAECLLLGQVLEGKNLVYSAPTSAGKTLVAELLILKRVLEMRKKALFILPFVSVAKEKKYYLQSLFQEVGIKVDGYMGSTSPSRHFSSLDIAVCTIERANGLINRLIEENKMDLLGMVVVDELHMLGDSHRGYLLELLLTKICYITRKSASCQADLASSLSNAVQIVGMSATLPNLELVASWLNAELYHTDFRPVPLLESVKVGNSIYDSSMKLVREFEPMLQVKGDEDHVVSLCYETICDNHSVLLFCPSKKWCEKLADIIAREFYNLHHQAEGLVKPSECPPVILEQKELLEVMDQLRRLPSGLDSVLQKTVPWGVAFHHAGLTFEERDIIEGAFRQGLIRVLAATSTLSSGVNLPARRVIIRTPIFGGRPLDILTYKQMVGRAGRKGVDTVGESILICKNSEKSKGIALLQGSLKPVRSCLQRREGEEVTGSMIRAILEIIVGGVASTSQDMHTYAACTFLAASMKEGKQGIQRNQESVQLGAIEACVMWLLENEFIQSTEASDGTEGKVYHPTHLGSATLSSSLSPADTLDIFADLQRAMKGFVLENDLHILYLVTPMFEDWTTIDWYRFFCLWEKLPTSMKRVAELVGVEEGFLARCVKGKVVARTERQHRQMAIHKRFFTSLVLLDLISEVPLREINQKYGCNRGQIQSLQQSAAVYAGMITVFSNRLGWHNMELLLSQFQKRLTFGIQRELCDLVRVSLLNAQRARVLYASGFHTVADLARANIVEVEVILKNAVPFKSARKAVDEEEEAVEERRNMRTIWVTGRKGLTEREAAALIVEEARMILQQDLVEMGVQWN
pIC50: −log10 of the molar value.
Answer each item with its documented pIC50.

Cc1cc(-c2c(C)n[nH]c2C)c(C(=O)Nc2nnc(OCc3ccc(Cl)cn3)s2)cn1 :: ≥ 6.70
Cc1nn(C)cc1-c1cnccc1C(=O)Nc1nnc(OCc2ccc(Cl)cc2)s1 :: ≥ 6.70

Field: pIC50. Fill in for each record below.
1. O=C(Nc1nnc(OCc2ccc(Cl)cc2)s1)c1cnccc1-c1ccccc1C(F)(F)F
2. COc1cc(N2CCOCC2)c(C(=O)Nc2nnc(OCc3ccc(Cl)cn3)s2)cn1
3. COc1ccccc1-c1cc(C2CC2)ncc1C(=O)Nc1nnc(OCc2ccc(Cl)cn2)s1
4. COc1ccc(C#N)cc1-c1cc(C)ncc1C(=O)Nc1nnc(OCc2ccc(Cl)cc2)s1
5. COc1ccccc1-c1cc(C#N)ncc1C(=O)Nc1nnc(OCCC2CC2)s1
6. N#Cc1ccc(OC(F)F)c(-c2cnccc2C(=O)Nc2nnc(OCc3ccc(Cl)cc3)s2)c1
7. COc1ccccc1-c1cc(CCO)ncc1C(=O)Nc1nnc(OCc2ccc(Cl)cc2)s1

A:
1: ≥ 6.70; 2: 5.00 to 6.00; 3: ≥ 6.70; 4: ≥ 6.70; 5: ≥ 6.70; 6: ≥ 6.70; 7: ≥ 6.70
